assay: Pharmacokinetics (plasma and brain levels) in ICR (CD-1) mice; assay type: in vivo; settings: male, ICR (CD-1), mouse, plasma, iv, 1 mg/kg, i.v. 1 mg/kg, mouse plasma, 0.083 h; read-out: Conc. in plasma, Mean
endpoint_label: concentration at 0.083 h (µg/mL)

- compound: "CC(=O)Nc1ccc(-c2cnc3cc(Cl)ccc3n2)cc1"
  endpoint_label: "concentration at 0.083 h"
  result_unit: "µg/mL"
  value_observed: 0.19
- compound: "CC(=O)Nc1ccc(C2=Nc3ccc(Cl)cc3OC2)cc1 [CA77, reference compound]"
  endpoint_label: "concentration at 0.083 h"
  result_unit: "µg/mL"
  value_observed: 0.0471
